The variants listed here are annotated with their SGCB cell-surface expression functional score (log10).
B1: library; numbered along this chain (parent)
chain: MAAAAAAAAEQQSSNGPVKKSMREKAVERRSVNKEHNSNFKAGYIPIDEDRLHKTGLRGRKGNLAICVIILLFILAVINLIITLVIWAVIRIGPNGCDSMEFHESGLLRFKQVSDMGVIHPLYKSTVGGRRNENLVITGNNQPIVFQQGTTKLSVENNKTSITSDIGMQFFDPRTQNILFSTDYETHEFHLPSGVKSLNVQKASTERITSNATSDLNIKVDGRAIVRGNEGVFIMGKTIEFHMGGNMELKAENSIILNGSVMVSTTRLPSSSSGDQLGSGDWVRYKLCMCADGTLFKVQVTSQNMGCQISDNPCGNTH

- Variants of: B1
- experiment-notes: SGCB cell-surface expression functional score (HA stain, bin4 vs bin1, normalised to synonymous) (log10 ratio); higher = more cell-surface SGCB (functional)
assay-endpoint: SGCB cell-surface expression functional score (log10)

- G245P: 0.4
- G93S: -0.25
- A8E: 0.48
- A4D: 0.21
- S164P: -1.87
- K250F: 1.23
- I239K: -1.38
- M116A: -1.24
- M243C: 0.71
- S273A: -0.68
- I166Q: -0.21
- N253F: 0.83
- T182Y: -2.23
- H53C: -0.27
- G274T: 0.16
- R227P: -1.23
- G194F: -0.14
- I218G: -1.15
- G231Q: -0.92
- V136P: -1.03
- E248G: 0.62
- N211R: -0.82
- A4C: 0.4
- D165H: 0.61
- N37E: 0.3
- H36S: 0.21
- Q299D: 0.16
- R29H: -0.15
- I45T: 0.15
- V298S: -0.15
- C307W: -0.24
- E133S: 0.19
- S13E: 0.25
- G236N: -1.82
- G16M: 0.4
- E252M: 0.8
- N217V: 0.65
- C97D: -2.33
- S279K: -0.05
- D281Q: 0.18
- A291K: -0.46
- T160H: -0.01
- F296N: -0.63
- V232M: 0.68
